Recorded values, source paper PMC10035370.

- Study System: VEGFR-3 (Homo sapiens)
- Sequence (P35916 25-1363): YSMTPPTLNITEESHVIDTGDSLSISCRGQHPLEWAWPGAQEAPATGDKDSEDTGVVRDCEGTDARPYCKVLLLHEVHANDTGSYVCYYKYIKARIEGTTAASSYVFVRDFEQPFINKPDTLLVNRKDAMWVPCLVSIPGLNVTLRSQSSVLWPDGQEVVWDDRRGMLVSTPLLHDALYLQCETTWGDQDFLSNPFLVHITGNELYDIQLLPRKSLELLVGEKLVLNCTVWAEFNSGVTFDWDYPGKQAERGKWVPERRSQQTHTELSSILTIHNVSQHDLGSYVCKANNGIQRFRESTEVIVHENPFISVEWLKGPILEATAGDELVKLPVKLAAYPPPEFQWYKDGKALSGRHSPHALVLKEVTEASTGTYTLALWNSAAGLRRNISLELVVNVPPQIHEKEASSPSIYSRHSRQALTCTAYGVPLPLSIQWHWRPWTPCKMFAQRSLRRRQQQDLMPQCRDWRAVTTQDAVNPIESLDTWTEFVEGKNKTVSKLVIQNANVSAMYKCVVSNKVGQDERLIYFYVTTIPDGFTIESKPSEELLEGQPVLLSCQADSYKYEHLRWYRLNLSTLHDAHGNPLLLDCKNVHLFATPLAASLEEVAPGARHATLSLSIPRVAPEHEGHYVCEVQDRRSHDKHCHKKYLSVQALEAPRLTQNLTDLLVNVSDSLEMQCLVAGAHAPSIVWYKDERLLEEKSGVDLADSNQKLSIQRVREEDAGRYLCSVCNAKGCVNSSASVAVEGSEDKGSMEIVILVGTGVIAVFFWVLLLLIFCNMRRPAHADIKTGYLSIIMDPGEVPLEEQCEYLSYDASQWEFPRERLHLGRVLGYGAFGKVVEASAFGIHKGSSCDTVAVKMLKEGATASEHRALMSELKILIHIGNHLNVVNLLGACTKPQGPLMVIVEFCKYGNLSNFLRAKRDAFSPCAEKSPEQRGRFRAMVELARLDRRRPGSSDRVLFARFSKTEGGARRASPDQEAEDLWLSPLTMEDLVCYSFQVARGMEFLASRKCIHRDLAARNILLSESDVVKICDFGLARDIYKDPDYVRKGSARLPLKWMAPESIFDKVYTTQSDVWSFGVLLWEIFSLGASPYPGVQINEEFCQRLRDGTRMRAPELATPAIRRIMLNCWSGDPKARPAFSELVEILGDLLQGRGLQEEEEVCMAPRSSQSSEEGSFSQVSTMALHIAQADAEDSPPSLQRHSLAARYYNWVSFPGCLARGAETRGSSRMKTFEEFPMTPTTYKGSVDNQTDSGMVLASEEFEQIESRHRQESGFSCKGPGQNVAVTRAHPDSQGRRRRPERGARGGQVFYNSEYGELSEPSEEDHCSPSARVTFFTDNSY
- Protocol Details: Cellular autophosphorylation assay, HEK293 cells transiently expressing VEGFR-3
- Format: cell-based
- Parameters: expressed in transfected cells; host or cells: HEK293T
- Particulars: read-out: IC50 in cellular assays, VEGFR-3 autophosphorylation
- Description: Transfection of HEK293T cells and Ba/F3 cells with VEGFR-1-Flag, VEGFR-2-Flag or VEGFR-3-Flag expression constructs was performed using Fugene-6 (Roche) as per manufacturer’s protocol. Briefly, Fugene-6 was pre-incubated with Opti-Mem (Gibco) before adding DNA. After 24 h, media was replaced with serum-free culture media containing 0.2 % BSA. […] The reaction was stopped with 50 μL of 2 N H2SO4, and the signal was read with Envision at the wavelengths of 485 nm and 530 nm.
Measurement Kind: pIC50
pIC50 here: minus log base 10 of the concentration, concentration in moles per litre.

Provide pIC50, system VEGFR-3 (Homo sapiens), entry "CCn1c(N)c(-c2ncc[nH]2)c(=O)c2ccc(C#C[C@@](C)(O)COC)nc21"
7.41

###

- Protocol Details: Pharmacokinetics in mice
- Assay type: in vivo
- Particulars: mouse, po; plasma, 30 mg/kg twice per day
Measurement Kind: Cmax (ng/mL)
Respond with the bare value in ng/mL.

Using the record for "CCn1c(N)c(-c2ncc[nH]2)c(=O)c2ccc(C#C[C@@](C)(O)COC)nc21" , state its measured Cmax.
8390

###

- Study System: VEGFR-2 (Homo sapiens, UniProt P35968)
- Protocol Details: Biochemical kinase assay (in vitro assay), VEGFR-2
- Set-up: expressed in transfected cells; host or cells: HEK293T
- Particulars: read-out: IC50 in biochemical assays, VEGFR-2
- Method: Sigma protein kinase assay kits were used. 125 μL per well of Poly-Glu-Tyr (PGT) solution (250 μg/mL of PGT in PBS without Ca^2+, Mg^2+ and sodium bicarbonate) was added in a 96-well plate and overnight incubation was performed at 37 °C. […] After 7 min at room temperature, the reaction was stopped by addition of 100 μL of […], and absorbance was determined with an Endvision spectrophotometer at 492 nm.
- Sequence (P35968 20-1356): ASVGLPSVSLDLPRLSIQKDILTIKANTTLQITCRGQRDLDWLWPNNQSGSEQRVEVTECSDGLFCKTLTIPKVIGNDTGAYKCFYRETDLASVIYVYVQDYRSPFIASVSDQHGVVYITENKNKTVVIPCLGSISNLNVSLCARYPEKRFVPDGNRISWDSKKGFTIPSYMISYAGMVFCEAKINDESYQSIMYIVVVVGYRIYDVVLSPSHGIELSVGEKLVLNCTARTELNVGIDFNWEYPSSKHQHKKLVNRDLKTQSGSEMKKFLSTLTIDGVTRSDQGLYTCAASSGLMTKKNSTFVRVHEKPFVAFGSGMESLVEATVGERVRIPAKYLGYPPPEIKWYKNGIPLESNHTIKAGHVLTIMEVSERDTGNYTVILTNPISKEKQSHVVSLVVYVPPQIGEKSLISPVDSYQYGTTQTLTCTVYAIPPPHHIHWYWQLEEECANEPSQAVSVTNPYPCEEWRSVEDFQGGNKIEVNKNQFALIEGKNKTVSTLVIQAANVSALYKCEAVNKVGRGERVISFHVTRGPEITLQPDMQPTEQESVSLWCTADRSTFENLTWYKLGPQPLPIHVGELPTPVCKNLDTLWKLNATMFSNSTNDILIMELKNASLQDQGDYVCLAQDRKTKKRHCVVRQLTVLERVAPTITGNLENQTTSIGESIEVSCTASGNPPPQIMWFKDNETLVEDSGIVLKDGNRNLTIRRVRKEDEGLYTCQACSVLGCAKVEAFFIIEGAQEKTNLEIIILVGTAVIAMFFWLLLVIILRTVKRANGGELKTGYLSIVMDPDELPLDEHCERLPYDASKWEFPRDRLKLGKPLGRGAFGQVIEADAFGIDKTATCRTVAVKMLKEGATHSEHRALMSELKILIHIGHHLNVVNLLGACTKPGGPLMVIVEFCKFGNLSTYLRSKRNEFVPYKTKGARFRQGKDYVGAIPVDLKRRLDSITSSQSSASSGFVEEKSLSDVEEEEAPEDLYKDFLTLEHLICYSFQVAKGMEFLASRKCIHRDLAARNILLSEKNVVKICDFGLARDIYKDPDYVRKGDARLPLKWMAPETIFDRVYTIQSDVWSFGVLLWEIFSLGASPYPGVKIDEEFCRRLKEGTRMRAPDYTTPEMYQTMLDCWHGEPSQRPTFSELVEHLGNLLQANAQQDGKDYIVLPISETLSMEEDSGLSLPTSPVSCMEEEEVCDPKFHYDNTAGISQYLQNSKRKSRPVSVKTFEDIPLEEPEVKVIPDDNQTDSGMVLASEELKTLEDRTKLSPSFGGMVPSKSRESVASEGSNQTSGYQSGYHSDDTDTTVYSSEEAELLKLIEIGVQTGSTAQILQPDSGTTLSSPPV
Measurement Kind: IC50
I'd appreciate it if you included the unit after the number.

Using the record for "CCn1c(N)c(-c2ncc[nH]2)c(=O)c2ccc(C#C[C@@](C)(O)COC)nc21" , state its measured IC50.
130 nM

###

- Protocol Details: Pharmacokinetics in mice
- Type: in vivo
- Particulars: SCID, mouse, plasma, 30 mg/kg, SCID mice with tumor, 30 mg/kg for 2 weeks; read-out: T1/2 in plasma (converted)
Measurement Kind: half-life
I'd appreciate it if you included the unit after the number.

Using the record for CCn1c(N)c(-c2ncc[nH]2)c(=O)c2ccc(C#C[C@@](C)(O)COC)nc21 [EVT801] , state its measured half-life.
1.6 h

###

- Study System: VEGFR-3 (Mus musculus, UniProt P35917)
- Sequence (P35917 25-1363): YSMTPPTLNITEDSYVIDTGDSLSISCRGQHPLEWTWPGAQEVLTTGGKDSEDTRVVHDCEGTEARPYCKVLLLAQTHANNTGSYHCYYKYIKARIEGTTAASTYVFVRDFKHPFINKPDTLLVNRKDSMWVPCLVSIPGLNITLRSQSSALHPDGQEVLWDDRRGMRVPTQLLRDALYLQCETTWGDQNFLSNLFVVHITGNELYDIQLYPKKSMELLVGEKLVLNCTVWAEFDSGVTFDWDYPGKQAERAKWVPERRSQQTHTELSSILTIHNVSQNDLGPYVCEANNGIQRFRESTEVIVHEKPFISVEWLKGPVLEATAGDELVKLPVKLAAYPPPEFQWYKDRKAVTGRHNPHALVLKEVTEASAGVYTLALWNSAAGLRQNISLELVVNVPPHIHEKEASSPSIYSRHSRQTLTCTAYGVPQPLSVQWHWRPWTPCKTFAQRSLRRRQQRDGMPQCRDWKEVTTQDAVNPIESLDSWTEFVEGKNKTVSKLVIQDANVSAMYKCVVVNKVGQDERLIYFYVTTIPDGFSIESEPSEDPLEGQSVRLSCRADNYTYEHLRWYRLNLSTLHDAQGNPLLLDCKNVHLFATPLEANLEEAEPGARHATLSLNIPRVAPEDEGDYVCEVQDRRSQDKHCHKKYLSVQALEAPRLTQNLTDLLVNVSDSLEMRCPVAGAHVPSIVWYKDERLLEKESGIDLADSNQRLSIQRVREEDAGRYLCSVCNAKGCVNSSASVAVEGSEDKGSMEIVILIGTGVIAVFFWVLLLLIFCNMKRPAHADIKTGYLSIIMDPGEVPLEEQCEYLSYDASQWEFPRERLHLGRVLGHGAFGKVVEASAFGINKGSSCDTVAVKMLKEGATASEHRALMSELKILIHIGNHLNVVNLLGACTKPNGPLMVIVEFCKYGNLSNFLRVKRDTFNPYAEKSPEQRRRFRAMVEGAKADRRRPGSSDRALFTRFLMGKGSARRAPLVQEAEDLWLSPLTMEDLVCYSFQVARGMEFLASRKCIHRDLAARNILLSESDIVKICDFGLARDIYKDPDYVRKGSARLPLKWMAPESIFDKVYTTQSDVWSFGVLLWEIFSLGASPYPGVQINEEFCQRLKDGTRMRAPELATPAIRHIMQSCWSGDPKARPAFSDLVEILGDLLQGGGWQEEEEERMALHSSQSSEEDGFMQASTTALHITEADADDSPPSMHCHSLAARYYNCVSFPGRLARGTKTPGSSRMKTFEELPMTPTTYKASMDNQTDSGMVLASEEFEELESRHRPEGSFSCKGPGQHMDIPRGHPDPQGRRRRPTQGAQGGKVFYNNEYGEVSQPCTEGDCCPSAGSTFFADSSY
- Protocol Details: Cellular VEGFR-3 autophosphorylation assay, mouse receptor
- Particulars: read-out: IC50 in cellular assays, VEGFR-3 autophosphorylation, mouse receptor
Measurement Kind: pIC50
pIC50 here: minus log base 10 of the concentration, concentration in moles per litre.

Using the record for CCn1c(N)c(-c2ncc[nH]2)c(=O)c2ccc(C#C[C@@](C)(O)COC)nc21 [EVT801] , state its measured pIC50.
6.82

###

- Protocol Details: Pharmacokinetics in mice
- Format: in vivo
- Particulars: mouse, oral; plasma, 100 mg/kg/day; read-out: AUC(0–24)
Measurement Kind: AUC(0-t) (ng·h/mL)
Respond with the bare value in ng·h/mL.

Using the record for CCn1c(N)c(-c2ncc[nH]2)c(=O)c2ccc(C#C[C@@](C)(O)COC)nc21 [EVT801] , state its measured AUC(0-t).
22000

###

- Study System: VEGFR-1 (Homo sapiens)
- Construct: The VEGFR-1 tyrosine kinase domain was obtained from Upstake; purchased Upstake (so in the source)
- Protocol Details: Biochemical kinase assay (in vitro assay), VEGFR-1
- Particulars: read-out: IC50 in biochemical assays, VEGFR-1
- Sequence (P17948 827-1158 limits assumed): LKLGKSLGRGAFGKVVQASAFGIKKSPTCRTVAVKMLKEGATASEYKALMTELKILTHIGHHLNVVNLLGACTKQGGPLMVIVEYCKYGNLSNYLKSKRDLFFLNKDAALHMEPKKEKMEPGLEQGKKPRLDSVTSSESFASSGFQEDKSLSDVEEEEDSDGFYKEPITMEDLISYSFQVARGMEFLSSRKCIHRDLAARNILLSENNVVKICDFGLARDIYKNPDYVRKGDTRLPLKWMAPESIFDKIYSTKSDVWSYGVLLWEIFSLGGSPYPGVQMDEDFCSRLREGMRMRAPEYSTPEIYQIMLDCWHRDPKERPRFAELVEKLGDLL
Measurement Kind: pIC50
pIC50 here: minus log base 10 of the concentration, concentration in moles per litre.

Using the record for CCn1c(N)c(-c2ncc[nH]2)c(=O)c2ccc(C#C[C@@](C)(O)COC)nc21 [EVT801] , state its measured pIC50.
6.40

###

- Protocol Details: Pharmacokinetics in mice
- Format: in vivo
- Particulars: mouse, oral; plasma, 100 mg/kg/day
Measurement Kind: Cmax (ng/mL)
Respond with the bare value in ng/mL.

Using the record for "CCn1c(N)c(-c2ncc[nH]2)c(=O)c2ccc(C#C[C@@](C)(O)COC)nc21" , state its measured Cmax.
8940

###

- Study System: VEGFR-2 (Homo sapiens)
- Protocol Details: Cellular autophosphorylation assay, HEK293 cells transiently expressing VEGFR-2
- Assay type: cell-based
- Design: expressed in transfected cells; host or cells: HEK293T
- Particulars: read-out: IC50 in cellular assays, VEGFR-2 autophosphorylation
Measurement Kind: IC50 (µM)
Respond with the bare value in µM.

Provide IC50, system VEGFR-2 (Homo sapiens), entry "CCn1c(N)c(-c2ncc[nH]2)c(=O)c2ccc(C#C[C@@](C)(O)COC)nc21"
0.26

###

- Protocol Details: Pharmacokinetics in mice
- Format: in vivo
- Particulars: mouse, po; plasma, 30 mg/kg twice per day; read-out: AUC(0–24)
Measurement Kind: AUC(0-t) (ng·h/mL)
Respond with the bare value in ng·h/mL.

Using the record for CCn1c(N)c(-c2ncc[nH]2)c(=O)c2ccc(C#C[C@@](C)(O)COC)nc21 [EVT801] , state its measured AUC(0-t).
28000

###

- Test system: hLMVEC
- Protocol Details: Growth factor-induced hLMVEC proliferation
- Assay type: cell-based, human
- Particulars: Homo sapiens; read-out: IC50, inhibition of VEGF-C-induced hLMVEC proliferation
Measurement Kind: IC50 (nM)
Respond with the bare value in nM.

Provide IC50, system hLMVEC, entry "CCn1c(N)c(-c2ncc[nH]2)c(=O)c2ccc(C#C[C@@](C)(O)COC)nc21"
15

###

- Study System: VEGFR-2 (Homo sapiens)
- Protocol Details: Viability of Ba/F3 cells dependent on VEGFR-2
- Type: cell-based
- Parameters: fusion proteins consisting of constructs for IL-3 independent survival and either VEGFR-2 or VEGFR-3 kinase domains; expressed in transfected cells; host or cells: Ba/F3 (stably transduced)
- Sequence (P35968 834-1162 limits assumed, species assumed): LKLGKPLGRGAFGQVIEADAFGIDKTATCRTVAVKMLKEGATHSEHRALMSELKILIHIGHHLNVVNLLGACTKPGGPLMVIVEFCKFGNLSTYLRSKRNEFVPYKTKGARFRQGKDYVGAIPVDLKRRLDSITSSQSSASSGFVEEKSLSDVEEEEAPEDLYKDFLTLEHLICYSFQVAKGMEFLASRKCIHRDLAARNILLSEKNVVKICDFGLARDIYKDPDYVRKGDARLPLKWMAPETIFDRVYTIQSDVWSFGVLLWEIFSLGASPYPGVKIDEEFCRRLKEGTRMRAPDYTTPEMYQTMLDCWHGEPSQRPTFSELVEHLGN
Measurement Kind: pIC50
pIC50 here: minus log base 10 of the concentration, concentration in moles per litre.

Using the record for "CCn1c(N)c(-c2ncc[nH]2)c(=O)c2ccc(C#C[C@@](C)(O)COC)nc21" , state its measured pIC50.
6.61

###

- Protocol Details: Pharmacokinetics in rats
- Type: in vivo
- Particulars: rat, plasma; Sprague-Dawley rats, 10 mg/kg; read-out: T1/2 in plasma (converted)
Measurement Kind: half-life (h)
Respond with the bare value in h.

Using the record for "CCn1c(N)c(-c2ncc[nH]2)c(=O)c2ccc(C#C[C@@](C)(O)COC)nc21" , state its measured half-life.
2.4

###

- Study System: VEGFR-1 (Homo sapiens, UniProt P17948)
- Construct: expressed in transfected cells; host or cells: HEK293T
- Protocol Details: Cellular autophosphorylation assay, HEK293 cells transiently expressing VEGFR-1
- Format: cell-based
- Particulars: HEK293 cells; read-out: IC50 in cellular assays, VEGFR-1 autophosphorylation
Measurement Kind: IC50
I'd appreciate it if you included the unit after the number.

Using the record for "CCn1c(N)c(-c2ncc[nH]2)c(=O)c2ccc(C#C[C@@](C)(O)COC)nc21" , state its measured IC50.
2.13 µM

###

- Protocol Details: Pharmacokinetics in mice
- Format: in vivo
- Particulars: Balb/c, mouse, plasma, 100 mg/kg, Balb/c with 4T1 tumor, 100 mg/kg for 2 weeks
Measurement Kind: half-life (h)
Respond with the bare value in h.

Using the record for "CCn1c(N)c(-c2ncc[nH]2)c(=O)c2ccc(C#C[C@@](C)(O)COC)nc21" , state its measured half-life.
3.2

###

- Protocol Details: Pharmacokinetics in mice
- Assay type: in vivo
- Particulars: mouse; Balb/c with 4T1 tumor, 100 mg/kg for 2 weeks; read-out: Tissue to plasma (AUC)
Measurement Kind: Kp
// return a plain number; no unit text

Using the record for CCn1c(N)c(-c2ncc[nH]2)c(=O)c2ccc(C#C[C@@](C)(O)COC)nc21 [EVT801] , state its measured Kp.
0.88

###

- Protocol Details: Pharmacokinetics in mice
- Type: in vivo
- Particulars: Balb/c, mouse, plasma, 30 mg/kg, Balb/c mice, 30 mg/kg; read-out: T1/2 in plasma (converted)
Measurement Kind: half-life (h)
Respond with the bare value in h.

Using the record for "CCn1c(N)c(-c2ncc[nH]2)c(=O)c2ccc(C#C[C@@](C)(O)COC)nc21" , state its measured half-life.
2.7
